Form field: solubility kinetic (one value per entry).
# measurement.conditions: buffer; pH 7.4; 200.0 µM
Give the value in µg/mL but do not write µg/mL after it.

compound: NC(=O)C1CCN(CC(=O)Nc2cccnc2Cl)CC1
measurement.kind: solubility kinetic
endpoint.result: 44.1
//
compound: COC(=O)[C@H](Cc1ccccc1)NC(=O)NCc1ccccc1
measurement.kind: solubility kinetic
endpoint.result: 45.4
//
compound: COc1ccc(NC(=S)N(Cc2cccnc2)Cc2ccco2)cc1
measurement.kind: solubility kinetic
endpoint.result: 44.8

For O=C(Nc1ccncc1)Nc1ccccc1Cl , what is its reported solubility kinetic?
33.5

Then this compound: O=C1COc2ccc(C(=O)COC(=O)CCOc3ccccc3)cc2N1
10.1

Then this compound: Cc1cc2c(Nc3ccccc3)ncnc2s1.Cl
13

Then this compound: Cn1c(C(=O)O)cc2cc(Oc3ccccc3)ccc21
36

Then this compound: O=C(c1cc2cc([N+](=O)[O-])ccc2s1)N1CCOCC1
16.2

Then this compound: Cc1ccc(S(C)(=O)=NC(=O)NC(=O)c2c(F)cccc2Cl)cc1 (centres undefined)
41.1

Then this compound: C=CCN1C(=O)C(CC(=O)NCC)SC1=Nc1ccccc1CC (centres undefined)
44.3

Then this compound: Cc1cccc(NC(=O)/C(C#N)=C/c2ccc(F)cc2)n1
1.5

Then this compound: OCCNC(=S)NCc1ccccc1
31.5

Then this compound: CSCCC(=O)N1CCCC(N(C)CCc2ccccc2)C1 (centres undefined)
41.7

Then this compound: CCCNC(=O)CSc1nc(Cc2ccccc2)nc2ccccc12
8.2

Then this compound: Cc1ccc(NC(=O)COC(=O)c2cccc(C)c2[N+](=O)[O-])cc1S(=O)(=O)N1CCCCC1
3.8

Then this compound: COc1ccc2[nH]c(C(=O)NCc3ccccc3)c(C)c2c1.Cl
2.7

Then this compound: Cc1cc(C(=O)OCC(=O)Nc2ccccc2C#N)c(C)o1
8.9
